Measured kon accompanies every entry in the list below.
target: T1, recombinant human HER2 extracellular domain protein (human, UniProt P04626 23-652); assay: BLI, Protein A capture
T1 construct: range 23-652; Range is printed for the immunogen/panning protein; also called ErbB2; recombinant HER2 protein
parameterMeasured: kon (M⁻¹ s⁻¹)

binder: 2126-Hu-L18 (antibody, IgG1, V domains shown, IgG1/Cκ) VH: QVQLVQSGSELKKPGASVKVSCKASGYTFTDYSMHWVRQAPGQGLEWMGWINTETGEPTYADDFKGRFVFSLDTSVSTAYLQISSLKAEDTAVYFCVRVGRYDYAMDYWGQGTTVTVSS VL: DIQMTQSPSSLSASVGDRVTITCKASQDVYTAVAWYQQKPGKAPKLLINSASYRYTGVPSRFSGSGSGTDFTLTISSLQPEDFATYYCQQSYSTPPTFGGGTKVEIK
parameterMeasured: kon
dataValue: 103000

binder: 2126-Hu-H48 (antibody, IgG1, name in Kabat numbering, V domains shown, IgG1/Cκ) VH: QVQLVQSGSELKKPGASVKVSCKASGYTFTDYSMHWVRQAPGQGLEWMGWINTETGEPTYADDFKGRFVFSLDTSVSTAYLQISSLKAEDTAVYFCVRVGKYDYAMDYWGQGTTVTVSS VL: DIQMTQSPSSLSASVGDRVTITCKASQDVYTAVAWYQQKPGKAPKLLINSASYRYTGVPSRFSGSGSGTDFTLTISSLQPEDFATYYCQQHYSTPPTFGGGTKVEIK
parameterMeasured: kon
dataValue: 115000
